- method.description: Bioavailability in dog after oral administration at a dose of 5 mg/kg
- Format: ADME, organism-based, Canis lupus familiaris
- condition.summary: in vivo

# smiles.entry, unit.descriptor, bioavailability
data = [
    ("CSCC[C@H](NC(=O)c1ccc(/C=C/c2cccnc2)cc1-c1ccccc1C)C(=O)O", "%", 24.5),
]

====

- method.description: Cmax value in dog after oral administration at a dose of 5 mg/kg
- Format: ADME, organism-based, Canis lupus familiaris
- Set-up: dose 5 mg/kg, route oral
- condition.summary: in vivo

# smiles.entry, unit.descriptor, Cmax
records = [
    ("CSCC[C@H](NC(=O)c1ccc(/C=C/c2cccnc2)cc1-c1ccccc1C)C(=O)O", "ng/mL", 2830),
]
